- tested.system: the molecule itself
- test: SEC-MALS

protein: NosRcaΔC L244D/N248A/L250A (domain or fragment, Nostoc sp. PCC 7120, UniProt P58555 2-291, looked up) SYYIAPRFLDKLAVHITKNFLNIPGVRVPLILGIHGRKGEGKTFQCELAFEKMGIEVTLISGGELESPDAGDPARLIRLRYRETAELIKVRGKMCVLMINDLDAGAGRFDEGTQYTVNTQLVNATLMNIADNPTDVQLPGSYDSNPIRRVPIIVTGNDFSTLYAPLIRDGRMEKFYWEPNRDDKVGIVGGIFAEDGLSQREIEQLVDTFPKQSIDFFSALRSRIYDIQIRDFIHKVGFERISDRVVASAEAPPEFKKPDFSLAHLIESGNLVLGEQQRVDNSQLVDEYNR
stoichiometry N: 6
